B1: Biopolymer transport protein ExbD (Escherichia coli (strain K12)), P0ABV2 (parent)
chain: MAMHLNENLDDNGEMHDINVTPFIDVMLVLLIIFMVAAPLATVDVKVNLPASTSTPQPRPEKPVYLSVKADNSMFIGNDPVTDETMITALNALTEGKKDTTIFFRADKTVDYETLMKVMDTLHQAGYLKIGLVGEETAKAK

Variants of: B1
conditions.used: with tonb_ecoli tonB, P02929
Sequence (P02929 whole entry): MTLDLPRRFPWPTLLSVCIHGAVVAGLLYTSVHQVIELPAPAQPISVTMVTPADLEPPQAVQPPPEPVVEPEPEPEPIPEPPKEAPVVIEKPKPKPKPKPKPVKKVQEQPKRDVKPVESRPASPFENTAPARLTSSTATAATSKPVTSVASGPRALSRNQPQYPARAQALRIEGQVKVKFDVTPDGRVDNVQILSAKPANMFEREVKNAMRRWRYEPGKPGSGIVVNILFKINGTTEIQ
property.label: effect of a mutation on the interaction

# variant, readout.value
records = [
    ("T109C", "increasing interaction"),
    ("K97C", "increasing interaction"),
    ("A92C", "increasing interaction"),
]
